- PROCEDURE_TEXT: Solubility in aqueous media (HPLC)
- Format: physicochemical
- ASSAY_SETUP: 25 °C, thermodynamic from solid; all of the aqueous media except phosphate buffer (pH 6.8)
PROPERTY_NAME: solubility at 24 h

q: # query: solubility at 24 h of entry `CCCCCCCCCCn1cc(CCC(N)(CO)CO)nn1`
a: > 2000 µg/mL

---

- PROCEDURE_TEXT: pKa of the free base
- Type: physicochemical
- ASSAY_SETUP: natural conditions
PROPERTY_NAME: pKa

q: Given `CCCCCCCCCCn1cc(CCC(N)(CO)CO)nn1` , state its recorded pKa.
a: 8.12

---

- PROCEDURE_TEXT: Solubility in aqueous media (HPLC)
- Type: physicochemical
- ASSAY_SETUP: thermodynamic from solid; FeSSIF (pH 5.8), 25° C., 24 hours, final pH 5.97
PROPERTY_NAME: solubility at 24 h

q: Need solubility at 24 h, item CCCCCCCCCCn1cc(CCC(N)(CO)CO)nn1 [Compound 1a]
a: > 2000 µg/mL

---

- PROCEDURE_TEXT: Solubility in aqueous media (HPLC)
- Assay type: physicochemical
- ASSAY_SETUP: aqueous buffer, thermodynamic from solid; pH 6.8 Phosphate buffer, 25° C., 24 hours, final pH 6.94
- Method: The solubility of Compound 1a prepared in Example 1 was evaluated in several different media, including pH 1.2 hydrochloric acid buffer, pH 3.0 citrate buffer, pH 4.7 acetate buffer, pH 6.8 phosphate buffer, simulated gastric fluid, fasted-state simulated intestinal fluid, fed-state simulated intestinal fluid, and water. […] Solubility was determined using HPLC, and a calibration curve was created by injecting a known concentration of Compound 1a. […]
PROPERTY_NAME: solubility at 24 h (µg/mL)
Give the number; µg/mL is assumed, so skip it.

q: Item `CCCCCCCCCCn1cc(CCC(N)(CO)CO)nn1` has what recorded solubility at 24 h?
a: 306

---

- PROCEDURE_TEXT: Solubility in aqueous media (HPLC)
- Format: physicochemical
- ASSAY_SETUP: aqueous buffer, thermodynamic from solid; pH 4.7 Acetate buffer, 25° C., 24 hours, final pH 5.11
PROPERTY_NAME: solubility at 24 h

q: Please look up its solubility at 24 h: `CCCCCCCCCCn1cc(CCC(N)(CO)CO)nn1`
a: > 2000 µg/mL

---

- PROCEDURE_TEXT: Solubility in aqueous media (HPLC)
- Format: physicochemical
- ASSAY_SETUP: simulated gastric fluid, thermodynamic from solid; pH 1.2 HCl buffer, 25° C., 24 hours, target 2 mg/mL, final pH 1.75
PROPERTY_NAME: solubility at 24 h

q: What measured solubility at 24 h goes with `CCCCCCCCCCn1cc(CCC(N)(CO)CO)nn1` ?
a: > 2000 µg/mL

Hey, just so you know, these numbers are from patent US12404252B2.
